Where these numbers come from: PubChem BioAssay (NCI)

- System: HL-60(TB) leukemia
- assay notes: NCI-60 one-dose screen, 48 h
- conditions used: 10 µM unless noted
- Description: Growth inhibition of the HL-60(TB) human tumor cell line is measured as a screen for anti-cancer activity. Cells are grown in 96 well plates and exposed to the test compound for 48 hours. Compounds are tested at a single concentration, which is 10^-5 M for most compounds. The reported endpoint is percent growth (GI% or GIPRCNT), where numbers from 0 - 100% represent growth inhibition, and numbers from -100% - 0 represent cell death. For example, a value of 40 represents 60% growth inhibition. […]
About 83,000 compounds went through this panel and 20% of them were active in at least one assay; those are over-represented in the sample as a whole. Calls of active or inactive are those of the source. How the source made its calls: active means growth percent below 10; inactive means the rest.
// allowed return values: YES = active, NO = inactive

In: Could you kindly confirm the outcome this assay logged for C[C@H]1C=C(C[C@@H](O)CCCCCCCCCC[C@@H](O)[C@H]2CCC(=O)O2)C(=O)O1 ?
Out: NO

In: Queued: O=C(Nc1ccc(Nc2ncnc3sc4c(c23)CCOC4)cc1)Nc1ccc(Cl)c(C(F)(F)F)c1
Out: NO

In: Queued: O=CN1N=C(c2ccc(Nc3ccnc4cc(Cl)ccc34)cc2)CC1c1ccccc1 (centres undefined)
Out: YES

In: Queued: COc1ccc(-c2nnc(SCC(=O)Nc3ccc(C(=O)/C=C/c4cc(OC)c(OC)c(OC)c4)cc3)n2-c2ccccc2)cc1OC
Out: NO

In: Queued: CCOC(=O)n1cnc2c(Cl)ncnc21
Out: NO

In: Queued: O=[N+]([O-])c1ccc(N/N=C/c2cccc3ccccc23)nc1
Out: NO

In: Queued: C=CC(CC(c1ccccc1)(c1ccccc1)c1ccccc1)N(CC)CC (centres undefined)
Out: NO

In: Queued: CCN1CCN(c2cc(C)nc(N(CCNc3ccnc4cc(Cl)ccc34)Cc3ccc4c(c3)OCO4)n2)CC1
Out: YES

In: Queued: COc1ccc(C2=Nc3c(C)nn(-c4ccccc4)c3NC(c3ccc(Oc4ccnc5cc(Cl)ccc45)c(OC)c3)C2)cc1 (centres undefined)
Out: NO

In: Queued: COC(=O)C[C@@H]1CC=CC(=O)/C1=C(O)/C=C/c1ccccc1
Out: YES

In: Queued: COc1ccc(/C=C(/C(=O)N2CCNCC2)c2cc(OC)c(OC)c(OC)c2)cc1O
Out: YES

In: Queued: NS(=O)(=O)c1ccc(N2N=C(c3cccs3)CC2c2ccccc2O)cc1 (centres undefined)
Out: YES

In: Queued: C=CC[n+]1c(/C=C/C=C2\N(C)c3ccccc3C2(C)C)sc2ccc(OC)cc21
Out: YES

In: Queued: O=C(CN1C=NC2C(N3CCOCC3)=NC=NC21)c1ccc(Br)cc1 (centres undefined)
Out: NO

In: Queued: Cc1cn(-c2cc(NC(=O)c3ccc(C)c(Nc4nccc(-c5cnccn5)n4)c3)cc(C(F)(F)F)c2)cn1
Out: NO

In: Queued: CCCCCCCCCCCCCC(=S)NCCCC[C@H](NC(=O)OCc1ccccc1)C(=O)Nc1ccccc1
Out: YES

In: Queued: COc1cc2c3c(c4c5ccccc5[nH]c4c2c(OC)c1OC)C(=O)N(O)C3=O
Out: NO

In: Queued: Cc1onc(-c2c(F)cccc2Cl)c1-c1ncc(-c2ccc(Br)cc2)o1
Out: NO

In: Queued: Nc1nnc2cc(Cl)ccc2n1
Out: NO

In: Queued: CC(C)OP(=O)(O)c1ncc(-c2ccc(C(F)(F)F)cc2)c(NC2CCCCCC2)n1
Out: NO

In: Queued: COc1ccc2[nH]cc(-c3noc(C(=O)c4cn(C)c5ccc(F)cc45)n3)c2c1
Out: NO

In: Queued: N=C(N)c1ccc(-c2ccc(-c3ccc(Cl)c(Cl)c3)s2)nc1
Out: YES

In: Queued: CSc1nc(O)c(-c2ccccc2)c(=O)[nH]1
Out: NO

In: Queued: COc1ccc(-c2nn(-c3ccc(NC(=O)c4cc(Cl)cc(Cl)c4)cc3)cc2-c2ccncc2)cc1Cl
Out: NO

In: Queued: O=C(N/N=C/c1ccncc1)c1ccccc1Nc1cccc(C(F)(F)F)c1
Out: NO

In: Queued: C=C1C(=O)O[C@H]2[C@H]1CC/C(CNS(=O)(=O)c1ccc3ccccc3c1)=C\CC[C@@]1(C)O[C@@H]21
Out: YES

In: Queued: O=C(NNC(=S)Nc1ccccc1)c1cc2ccc1CCc1ccc(cc1)CC2
Out: NO

In: Queued: Cc1ccc(S(=O)(=O)N2CCN(C(=O)CSc3nc4ccc(C)cc4[nH]3)CC2)cc1
Out: YES

In: Queued: CCOC(=O)c1c(C)nc2c(c1N)/C(=C/c1ccc[nH]1)C(=O)N2Cc1ccc(C(F)(F)F)cc1
Out: NO

In: Queued: O=S(=O)(NCCCNc1nccc(-c2c(-c3cccc(F)c3)nc3sccn23)n1)c1cccc2ccccc12
Out: NO

In: Queued: COc1ccc2c(ccc[n+]2C)c1
Out: NO

In: Queued: CCCC(NC(=O)OCc1ccccc1)C(=O)O (centres undefined)
Out: NO

In: Queued: CS(=O)(=O)Nc1cc(-c2ccc3ncnc(Nc4ccc(F)c(Cl)c4)c3c2)ccc1Cl
Out: NO

In: Queued: Cc1ccc(-c2nnc(SCc3nc(N)nc(Nc4ccccc4F)n3)n2-c2ccccc2)cc1
Out: YES

In: Queued: CCOC(=O)Cn1c(-c2nonc2NC(=O)c2ccccc2F)nc2ccccc21
Out: NO

In: Queued: O=C(NCCCNc1cc(-c2cn(-c3ccccc3)nc2-c2cccc(O)c2)ccn1)c1ccc(F)cc1
Out: YES

In: Queued: CCNC(=O)C#Cc1ccc2c(C(=Nc3ccc(CN(C)C)cc3)c3ccccc3)c(O)[nH]c2c1
Out: YES

In: Queued: CCCc1cc(=O)oc2c3c(c4c(c12)OC(C)(C)C=C4)O[C@@H](C)[C@H](C)C3=O
Out: NO

In: Queued: Fc1ccc(-c2nc(-c3nc4ncccc4[nH]3)cc3c2[nH]c2ccccc23)cc1F
Out: NO

====

- Tested on: HL-60(TB) leukemia
- assay notes: NCI-60 one-dose screen, 48 h
- conditions used: 10 µM unless noted
Compounds without any hit were thinned out: in the full panel of roughly 83,000, 20% have a hit. Calls of active or inactive are those of the source. How the source made its calls: active means growth percent below 10; inactive means the rest.
// allowed return values: label 1 for active, label 0 for inactive

In: Could you kindly confirm the outcome this assay logged for O=C(Oc1ccc2c(c1)sc1nc(-c3ccccc3)[nH]c(=O)c12)C(F)(F)F ?
Out: label 1

In: Queued: COc1cc(Cl)cc(-c2nn(C(=O)NS(=O)(=O)c3ccccc3)cc2-c2ccncc2)c1
Out: label 0

In: Queued: O=C(O)c1[nH]c(=O)[nH]c(=O)c1F
Out: label 0

In: Queued: NC(=O)C(Br)CBr (stereo unspecified)
Out: label 1

In: Queued: COc1cc(C(=O)CCCl)ccc1O
Out: label 0

In: Queued: N/C(=N\O)c1ccncc1
Out: label 0

In: Queued: CCC(C)C1NC(=O)c2nc(oc2-c2ccccc2)-c2csc(n2)-c2csc(n2)-c2nc(oc2C)-c2coc(n2)CNC(=O)C(C(C)CC)NC1=O (stereo unspecified)
Out: label 1

In: Queued: O=Cc1c[nH]c2ccc(NC(=O)OCc3ccccc3)cc12
Out: label 0

In: Queued: COc1ccc(-c2nc(/C=C3\C(=O)N(C)c4ccccc43)c3ccccn23)cc1
Out: label 0

In: Queued: CN1CCCN(CCNc2nccc(-c3c(-c4cccc(O)c4)nc4sccn34)n2)S1(=O)=O
Out: label 0

In: Queued: C/C(=N\OC(=O)Nc1ccccc1)c1ccccc1
Out: label 0

====

- Tested on: HL-60(TB) leukemia
- assay notes: NCI-60 one-dose screen, 48 h
- conditions used: 10 µM unless noted
- Procedure: Growth inhibition of the HL-60(TB) human tumor cell line is measured as a screen for anti-cancer activity. Cells are grown in 96 well plates and exposed to the test compound for 48 hours. Compounds are tested at a single concentration, which is 10^-5 M for most compounds. The reported endpoint is percent growth (GI% or GIPRCNT), where numbers from 0 - 100% represent growth inhibition, and numbers from -100% - 0 represent cell death. For example, a value of 40 represents 60% growth inhibition. […]
This is part of a sample that, as a whole, favours compounds with a hit. Of some 83,000 tested, about 20% had one in any assay. Activity calls are given as the source filed them. Rule for the calls: active = growth percent below 10; inactive = the rest.
// allowed return values: active, inactive

In: Could you kindly confirm the outcome this assay logged for Cc1cccc(NC2=C(Cl)C(=O)c3nc(C)ccc3C2=O)c1 ?
Out: active

In: Queued: CCc1ccc2nc(NC(=O)Cc3csc(NC(=O)c4ccco4)n3)sc2c1
Out: inactive

In: Queued: O=c1cc/c(=N\Nc2ccccc2)c(=O)/c1=N/Nc1ccccc1
Out: inactive

In: Queued: CC1=CC(=O)C(C(C)=Nc2ccccc2Cl)C(=O)O1 (stereo not given)
Out: inactive

In: Queued: O=C(CN1CCN(c2cc3c(cc2F)c(=O)c(C(=O)O)cn3C2CC2)CC1)N/N=C/c1ccncc1
Out: inactive
